Reported values of AC50 for individual entries
- experimental system: Long-chain-fatty-acid--AMP ligase FadD28 (Mycobacterium tuberculosis)
- Sequence (P9WQ59 whole entry): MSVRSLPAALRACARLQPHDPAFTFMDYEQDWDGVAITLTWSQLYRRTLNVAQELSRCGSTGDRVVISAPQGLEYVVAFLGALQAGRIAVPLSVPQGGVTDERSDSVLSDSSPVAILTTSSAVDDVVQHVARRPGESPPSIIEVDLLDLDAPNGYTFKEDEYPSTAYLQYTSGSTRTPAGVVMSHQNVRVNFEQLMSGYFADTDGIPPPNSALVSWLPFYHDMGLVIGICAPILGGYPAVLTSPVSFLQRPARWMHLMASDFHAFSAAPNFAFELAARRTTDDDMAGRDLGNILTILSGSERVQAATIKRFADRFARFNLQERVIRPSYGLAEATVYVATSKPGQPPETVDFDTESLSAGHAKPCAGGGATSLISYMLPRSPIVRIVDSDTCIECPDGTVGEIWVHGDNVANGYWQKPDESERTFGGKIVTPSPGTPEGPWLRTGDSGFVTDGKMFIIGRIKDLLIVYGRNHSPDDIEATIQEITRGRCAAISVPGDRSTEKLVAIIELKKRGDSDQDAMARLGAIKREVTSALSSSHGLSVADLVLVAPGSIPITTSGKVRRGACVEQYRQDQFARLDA
- experiment summary: Fluorescence polarization aasay to screen for inhibitors that compete for the binding of FadD28 to a bisubstrate Measured in Biochemical System Using Plate Reader - 2147-01_Inhibitor_Dose_CherryPick_Activity.
- Type: functional, Mycobacterium tuberculosis H37Rv
Calls of active or inactive are those of the source. How the calls were made is not given here.

[
  {
    "entry smiles": "COc1ccc(C(=O)NCc2ccc(Cl)cc2)cc1S(=O)(=O)N1CCCC1",
    "AC50": "4.67 µM (active)"
  },
  {
    "entry smiles": "Cn1c(N/N=C/c2c[nH]c3ccccc23)nc2ccccc21",
    "AC50": "52.1 µM (active)"
  },
  {
    "entry smiles": "O=c1c2c(O)cc(CSc3ccc(Cl)cc3)nc2[nH]n1-c1ccccc1",
    "AC50": "23.4 µM (active)"
  },
  {
    "entry smiles": "CCc1cccc2c(C(=O)COC(=O)c3ccc(O)cc3)c[nH]c12",
    "AC50": "26.2 µM (active)"
  }
]

Every entry's value here was drawn from ChEMBL document CHEMBL1201862.
